B1: POU domain, class 3, transcription factor 2, residues 356 to 411; numbered along this chain, P20265 (parent)
chain: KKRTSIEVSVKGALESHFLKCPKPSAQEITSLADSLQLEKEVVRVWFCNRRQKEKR

Variants of: B1
Assay: abundance fitness (aPCA) (normalised: wild type 0, dead -1); higher = more abundant; growth selection in yeast, the domain comes from the species named
Conditions: Homo sapiens
For each of the variants below, state its abundance fitness.
Form rule: numeric answer, no unit written next to it.

*Q* For the variant shown here, KKRTSIECSVKGALESHFLKCPKPSAQEITSLADSLQLEKEVVRVWFCNRRQKEKR [V8C] , give the reported abundance fitness.
*A* -0.327

*Q* Need abundance fitness, item KDRTSIEVSVKGALESHFLKCPKPSAQEITSLADSLQLEKEVVRVWFCNRRQKEKR [K2D]
*A* 0.028

*Q* Please look up its abundance fitness: KKRTSIEVSVKGALPSHFLKCPKPSAQEITSLADSLQLEKEVVRVWFCNRRQKEKR [E15P]
*A* -1.04

*Q* # lookup: abundance fitness of KKRTSIEVSVKGALESHFLICPKPSAQEITSLADSLQLEKEVVRVWFCNRRQKEKR [K20I]
*A* -0.215

*Q* Look up abundance fitness for this variant: KKRTSIEVSVKGALESHFLKCPKPSAQEITSLADNLQLEKEVVRVWFCNRRQKEKR [S35N]
*A* -0.125

*Q* So what does the record say about abundance fitness for KKRTSIEVSVKGWLESHFLKCPKPSAQEITSLADSLQLEKEVVRVWFCNRRQKEKR [A13W] ?
*A* -0.422

*Q* Return reported abundance fitness; argument: KKRTSIEVSVKIALESHFLKCPKPSAQEITSLADSLQLEKEVVRVWFCNRRQKEKR [G12I]
*A* 0.193

*Q* Could you share which abundance fitness value was measured for KKRTSIEVSVKGALEAHFLKCPKPSAQEITSLADSLQLEKEVVRVWFCNRRQKEKR [S16A] ?
*A* 0.097

*Q* Value lookup for abundance fitness; key = KKRTSIEVSVKGALESHFLKCPKPSAQEITSLADSLQLEKEVVRVWFCQRRQKEKR [N49Q]
*A* -0.005

*Q* Look up abundance fitness: KKRTSIEVSVKGALESHFLKCPKPSAQEITSLADSLQLYKEVVRVWFCNRRQKEKR [E39Y]
*A* -0.653

*Q* Fill blank: measured abundance fitness of the variant KKRTSIEVSVKGALESHFLKCPKPSAQEITSLADSLQGEKEVVRVWFCNRRQKEKR [L38G] is ____.
*A* -0.871
